- TARGET: recombinant eIF4E (Homo sapiens (Human), UniProt P06730)
- Sequence (P06730 whole entry): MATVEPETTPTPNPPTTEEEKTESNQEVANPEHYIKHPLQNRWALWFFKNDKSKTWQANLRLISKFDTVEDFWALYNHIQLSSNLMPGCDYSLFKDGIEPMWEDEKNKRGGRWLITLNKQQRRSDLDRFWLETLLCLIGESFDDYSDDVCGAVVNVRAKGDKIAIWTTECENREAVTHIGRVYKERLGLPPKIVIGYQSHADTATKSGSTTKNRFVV
- TEST NAME: Fluorescence polarization competition assay for eIF4E binding potency
- ASSAY CONTEXT: fluorescence polarization competition, 75 nM recombinant eIF4E, 20 nM EDA-m7GDP-ATTO-550; IC50 class; read-out: elF4E FP
pIC50: −log10 of the molar value.
For each of the compounds below, state its pIC50.

Solved cases below.
Documented pIC50 of Cc1cc(-c2cc(Cl)ccc2OCCn2c(C)nc3cc(C(F)(F)F)c(N4CCN(C)CC4)nc3c2=O)c2sc(C)c(C(=O)O)c2n1 [compound 1096] : > 7.30

Documented pIC50 of Cc1cc(-c2cc(Cl)ccc2OCCn2c(C)nc3ccc(N4CCN(C)CC4)c(C#N)c3c2=O)c2sc(C)c(C(=O)O)c2n1 [compound 812] : > 7.30

Documented pIC50 of Cc1cc(-c2cc(Cl)ccc2OCCn2c(C)nc3cc(C(F)(F)F)c(-c4cnn(C)c4C)c(C#N)c3c2=O)c2scc(C(=O)O)c2n1 [compound 1032] : > 7.30

Documented pIC50 of Cc1nc2cc(OC(F)F)c(C(F)F)c(C#N)c2c(=O)n1CCOc1ccc(Cl)cc1-c1ccnc2c(C(=O)O)csc12 [compound 539] : > 7.30

Documented pIC50 of N#Cc1cc2c(=O)n(CCOc3ccc(Cl)cc3-c3cc4c(c(C(=O)O)c3)OCC4)cnc2cn1 [compound 104] : 6.00 to 7.30

Documented pIC50 of Cc1cc(-c2cc(Cl)ccc2OCCn2c(C)nc3cnc(N4CCC(F)(F)CC4)c(C#N)c3c2=O)c2scc(C(=O)O)c2n1 [compound 1097] : > 7.30

Quick batch: pIC50 for everything below.
1. Cc1cc(-c2cc(Cl)ccc2OCCn2c(C)nc3cnc(C#N)cc3c2=O)c2scc(C(=O)NS(C)(=O)=O)c2n1 [compound 598]
2. Cc1cc(-c2cc(Cl)ccc2OCCn2c(C)nc3cnc(C(C)C)c(C#N)c3c2=O)c2scc(C(=O)O)c2n1 [compound 432]
3. Cc1cc(-c2cc(Cl)ccc2OCCn2c(C)nc3cnc(N4CC(OCC(F)F)C4)c(C#N)c3c2=O)c2scc(C(=O)O)c2n1 [compound 1043]

1: 6.00 to 7.30; 2: > 7.30; 3: > 7.30

Quick batch: pIC50 for everything below.
1. COC(=O)c1sc2cc(-c3cc(Cl)ccc3OCCn3c(C)nc4cc(C(F)(F)F)cc(C#N)c4c3=O)cnc2c1O [compound 664]
2. Cc1cc(-c2cc(Cl)ccc2OCCn2c(C)nc3cc(C(F)(F)F)c(-c4ncccn4)nc3c2=O)c2scc(C(=O)O)c2n1 [compound 765]

6.00 to 7.30
> 7.30
